TARGET_OF_ASSAY: T1, His-labeled human CD3E (human, UniProt P07766 23-126)
T1 construct: also called human CD3E antigen; antigen CD3E; not shown: His label
EXPERIMENT: BLI (Octet), method of Example 3: His-labeled human CD3E on Ni-NTA sensors
Examples of binders with documented koff follow.
Numeric only. Scale: s⁻¹

- BINDER: "humanized antibody AB614 (antibody, human IgG4 S228P, kappa, V domains shown, Humanized from AP591 CDRs) VH: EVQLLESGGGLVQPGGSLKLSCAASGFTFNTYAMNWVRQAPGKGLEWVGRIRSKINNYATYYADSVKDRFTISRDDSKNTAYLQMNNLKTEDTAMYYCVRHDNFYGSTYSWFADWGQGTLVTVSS VL: ELVVTQEPSLTVSPGGTVTLTCRSSTGVVTTSNYANWVQEKPDHLFTGLIGATNYRAPGTPARFSGSLLGGKAALTLSGVQPEDEAIYFCVLWYSNHWVFGGGTKLTVLR"
  MEASURED_RESULT: "1.45e-05"
- BINDER: "humanized antibody AB623 (antibody, V domains shown) VH: EVQLLESGGGLVQPGGSLKLSCAASGFTFNTYAMNWVRQAPGKGLEWVGRIRSKINNYATYYADSVKDRFTISRDDSKNTAYLQMNNLKTEDTAMYYCVRHDNHYGSTYSWFADWGQGTLVTVSS VL: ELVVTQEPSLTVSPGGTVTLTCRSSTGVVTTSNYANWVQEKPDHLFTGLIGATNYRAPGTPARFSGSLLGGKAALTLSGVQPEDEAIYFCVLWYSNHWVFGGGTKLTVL"
  MEASURED_RESULT: 0.00119

## Input What does the record list as koff for humanized antibody AB620 (antibody, V domains shown) VH: EVQLLESGGGLVQPGGSLKLSCAASGFTFDTYAMNWVRQAPGKGLEWVGRIRSKINNYATYYADSVKDRFTISRDDSKNTAYLQMNNLKTEDTAMYYCVRHDNFYGSTYSWFADWGQGTLVTVSS VL: ELVVTQEPSLTVSPGGTVTLTCRSSTGVVTTSNYANWVQEKPDHLFTGLIGATDYRAPGTPARFSGSLLGGKAALTLSGVQPEDEAIYFCVLWYSNHWVFGGGTKLTVL ?
## Output 4.26e-05
